- Test system: P12-Ichikawa
- experiment: cell viability relative to DMSO control; higher = less cytotoxic
- experimental context: HPLM + 10% dialyzed FBS; 48 h; 0.569 µM

{"molecule": "O=C(O)CCn1c2c(c3ccccc31)C[C@H](N[S+](=O)([O-])c1ccc(F)cc1)CC2", "test system": "P12-Ichikawa", "unit annotation": "%", "cell viability": 113}
{"molecule": "CC1(C)CNc2cc(NC(=O)c3cccnc3NCc3ccncc3)ccc21", "test system": "P12-Ichikawa", "unit annotation": "%", "cell viability": 117}
{"molecule": "CCCCCCCCCC(=O)N[C@@H](Cc1c[nH]c2ccccc12)C(=O)N[C@H](CC(N)=O)C(=O)N[C@@H](CC(=O)O)C(=O)N[C@@H]1C(=O)NCC(=O)N[C@@H](CCCN)C(=O)N[C@@H](CC(=O)O)C(=O)N[C@H](C)C(=O)N[C@@H](CC(=O)O)C(=O)NCC(=O)N[C@H](CO)C(=O)N[C@@H]([C@@H](C)CC(=O)O)C(=O)N[C@@H](CC(=O)c2ccccc2N)C(=O)O[C@@H]1C", "test system": "P12-Ichikawa", "unit annotation": "%", "cell viability": 126}
{"molecule": "COc1ccc2c(c1)c(CC(=O)OCC(=O)O)c(C)n2C(=O)c1ccc(Cl)cc1", "test system": "P12-Ichikawa", "unit annotation": "%", "cell viability": 112}
{"molecule": "CC1(N2CCC(n3c([C@@H]4CCCNC4)nc4ccccc43)CC2)CCCCCCC1", "test system": "P12-Ichikawa", "unit annotation": "%", "cell viability": 113}
{"molecule": "C/C(O)=C(\\C#N)C(=O)Nc1cc(Br)ccc1Br", "test system": "P12-Ichikawa", "unit annotation": "%", "cell viability": 108}
{"molecule": "N#Cc1ccnc(Nc2cc(C3CCN(C4COC4)CC3)cc(N3CCC(F)(F)C3)n2)c1", "test system": "P12-Ichikawa", "unit annotation": "%", "cell viability": 100}
{"molecule": "O=C(Nc1ncc(-c2cc(C(F)F)nn2-c2c(Cl)cccc2Cl)s1)C1CC1", "test system": "P12-Ichikawa", "unit annotation": "%", "cell viability": 126}
{"molecule": "O=C(O)/C=C/c1ccc(O)c(O)c1", "test system": "P12-Ichikawa", "unit annotation": "%", "cell viability": 107}
{"molecule": "OC(=O)C(CC/1=C/C(=O)NC2=CC=CC=C12)NC(=O)C3=CC=C(Cl)C=C3 (configuration not stated)", "test system": "P12-Ichikawa", "unit annotation": "%", "cell viability": 124}
{"molecule": "COC/1=C/C=C2\\C(=C/C1=O)[C@H](CCC3=CC(=C(OC)C(=C23)OC)OC)NC(C)=O", "test system": "P12-Ichikawa", "unit annotation": "%", "cell viability": 6.89}
{"molecule": "C[C@]12CC[C@@H]3c4ccc(O)cc4CC[C@H]3[C@@H]1C[C@@H](O)[C@@H]2O", "test system": "P12-Ichikawa", "unit annotation": "%", "cell viability": 119}
{"molecule": "CN[C@@H](C)C(=O)N[C@H]1CN(C(=O)CC(C)C)CC[C@H]2CC[C@@H](C(=O)NC(c3ccccc3)c3ccccc3)N2C1=O", "test system": "P12-Ichikawa", "unit annotation": "%", "cell viability": 103}
{"molecule": "C[C@H]1[C@@H](C(=O)C[C@H]2O[C@@H]3O[C@]4(C)CC[C@H]5[C@H](C)CC[C@@H]([C@H]2C)[C@@]35OO4)O[C@@H]2O[C@]3(C)CC[C@H]4[C@H](C)CC[C@@H]1[C@@]24OO3", "test system": "P12-Ichikawa", "unit annotation": "%", "cell viability": 113}
{"molecule": "Cn1cc(/C=C2\\C(=O)Nc3cccnc32)c2ccccc21", "test system": "P12-Ichikawa", "unit annotation": "%", "cell viability": 124}
{"molecule": "CCC\\C1=C\\C(=O)NC(=S)N1", "test system": "P12-Ichikawa", "unit annotation": "%", "cell viability": 94.2}
{"molecule": "Cn1c(=O)n(-c2ccc(C(C)(C)C#N)cc2)c2c3cc(-c4cnc5ccccc5c4)ccc3ncc21", "test system": "P12-Ichikawa", "unit annotation": "%", "cell viability": 92.1}
{"molecule": "CC1=C(CC(=O)O)c2cc(F)ccc2/C1=C\\c1ccc([S+](C)[O-])cc1 (configuration not stated)", "test system": "P12-Ichikawa", "unit annotation": "%", "cell viability": 116}
{"molecule": "C=CC(=O)Nc1cccc(Nc2nc(NC3CCC(N(C)C)CC3)nc3c2ncn3C(C)C)c1 (configuration not stated)", "test system": "P12-Ichikawa", "unit annotation": "%", "cell viability": 105}
{"molecule": "COc1cc([C@H]2Oc3cc([C@H]4Oc5cc(O)cc(O)c5C(=O)[C@@H]4O)ccc3O[C@@H]2CO)ccc1O", "test system": "P12-Ichikawa", "unit annotation": "%", "cell viability": 112}
{"molecule": "CN(C)CCN(C)C(=O)c1ccc(NC(=O)Nc2ccc(-c3nc(N4CCOCC4)c4ccn(CC(F)(F)F)c4n3)cc2)cc1", "test system": "P12-Ichikawa", "unit annotation": "%", "cell viability": 101}
{"molecule": "C[S+](=O)([O-])c1ccc(C(=O)Nc2ccc(Cl)c(-c3ccccn3)c2)c(Cl)c1", "test system": "P12-Ichikawa", "unit annotation": "%", "cell viability": 136}
